Where these numbers come from: patent US7105675B2

Target: κ1 opioid receptor (Cavia porcellus, UniProt P41144)
Construct: Guinea pig brain membranes were prepared each day using partially thawed guinea pig brain; from tissue; host or cells: guinea pig brain membranes
Sequence (P41144 whole entry): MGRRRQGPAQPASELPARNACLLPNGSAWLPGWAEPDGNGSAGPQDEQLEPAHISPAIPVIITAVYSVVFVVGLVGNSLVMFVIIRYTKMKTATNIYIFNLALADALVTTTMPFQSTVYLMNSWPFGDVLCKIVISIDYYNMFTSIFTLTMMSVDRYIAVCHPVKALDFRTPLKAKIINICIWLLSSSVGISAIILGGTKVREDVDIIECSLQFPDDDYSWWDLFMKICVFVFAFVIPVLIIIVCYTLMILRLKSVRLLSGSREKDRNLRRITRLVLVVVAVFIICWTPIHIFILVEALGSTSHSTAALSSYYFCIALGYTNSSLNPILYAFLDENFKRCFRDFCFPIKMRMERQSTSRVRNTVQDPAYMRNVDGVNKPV
Assay: Radioligand binding, kappa sites, displacement of [3H]U69,593 in guinea pig brain membranes

compound | Ki [nM]
N#Cc1c(N)sc2c1[C@@H]1Oc3c(O)ccc4c3[C@@]13CCN(CC1CC1)[C@H](C4)[C@]3(O)C2 | 1.5
COC(=O)c1c(N)sc2c1[C@@H]1Oc3c(O)ccc4c3[C@@]13CCN(CC1CC1)[C@H](C4)[C@]3(O)C2 | 8.7
N#Cc1cnc2c(c1)CC1(O)C3Cc4ccc(O)c5c4C1(CCN3CC1CC1)C2O5 (stereo not drawn) | 33.9
Nc1sc2c(c1C(=O)c1ccccc1)[C@@H]1Oc3c(O)ccc4c3[C@@]13CCN(CC1CC1)[C@H](C4)[C@]3(O)C2 | 14
O=[N+]([O-])c1cnc2c(c1)CC1(O)C3Cc4ccc(O)c5c4C1(CCN3CC1CC1)C2O5 (stereo not drawn) | 92
Nc1sc2c(c1C(=O)OCc1ccccc1)[C@@H]1Oc3c(O)ccc4c3[C@@]13CCN(CC1CC1)[C@H](C4)[C@]3(O)C2 | 48
NC(=O)c1c(N)sc2c1[C@@H]1Oc3c(O)ccc4c3[C@@]13CCN(CC1CC1)[C@H](C4)[C@]3(O)C2 | 2
CCOC(=O)c1c(N)sc2c1[C@@H]1Oc3c(O)ccc4c3[C@@]13CCN(CC1CC1)[C@H](C4)[C@]3(O)C2 | 9
Oc1ccc2c3c1OC1c4ncc(Br)cc4CC4(O)C(C2)N(CC2CC2)CCC314 (stereo not drawn) | 55.7

* * *

Measured Ke selectivity ratio μδ by item
Target: δ opioid receptor (DPDPE) in MVD (Mus musculus, UniProt P32300)
Construct: Electrically-induced smooth muscle contractions of mouse vas deferens and strips of guinea pig ileum longitudinal muscle myenteric plexus were used; from tissue; host or cells: mouse vas deferens (male ICR mice)
Sequence (P32300 whole entry): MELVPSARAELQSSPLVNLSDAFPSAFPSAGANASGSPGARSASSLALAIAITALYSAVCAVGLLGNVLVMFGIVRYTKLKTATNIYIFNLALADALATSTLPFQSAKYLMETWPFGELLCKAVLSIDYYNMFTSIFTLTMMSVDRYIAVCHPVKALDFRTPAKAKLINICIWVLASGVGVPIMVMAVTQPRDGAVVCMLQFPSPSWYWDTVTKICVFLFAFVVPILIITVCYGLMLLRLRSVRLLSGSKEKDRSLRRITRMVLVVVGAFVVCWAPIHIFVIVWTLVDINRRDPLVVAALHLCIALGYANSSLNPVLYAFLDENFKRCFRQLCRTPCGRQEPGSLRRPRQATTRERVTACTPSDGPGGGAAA
Assay: Antagonist activity against DPDPE in electrically stimulated mouse vas deferens (MVD)
Type: cell-based
Details: Ke GPI (μ) over Ke MVD (δ)
measuredEndpoint: Ke selectivity ratio μδ

compound | assayedTarget | measuredEndpoint | numericReadout
COC(=O)c1c(N)sc2c1[C@@H]1Oc3c(O)ccc4c3[C@@]13CCN(CC1CC1)[C@H](C4)[C@]3(O)C2 | δ opioid receptor (DPDPE) in MVD (Mus musculus, UniProt P32300) | Ke selectivity ratio μδ | 1.7
O=[N+]([O-])c1cnc2c(c1)CC1(O)C3Cc4ccc(O)c5c4C1(CCN3CC1CC1)C2O5 (centres unmarked) | δ opioid receptor (DPDPE) in MVD (Mus musculus, UniProt P32300) | Ke selectivity ratio μδ | 5.3
CCOC(=O)c1c(N)sc2c1[C@@H]1Oc3c(O)ccc4c3[C@@]13CCN(CC1CC1)[C@H](C4)[C@]3(O)C2 | δ opioid receptor (DPDPE) in MVD (Mus musculus, UniProt P32300) | Ke selectivity ratio μδ | 0.4
N#Cc1c(N)sc2c1[C@@H]1Oc3c(O)ccc4c3[C@@]13CCN(CC1CC1)[C@H](C4)[C@]3(O)C2 | δ opioid receptor (DPDPE) in MVD (Mus musculus, UniProt P32300) | Ke selectivity ratio μδ | 0.9
Oc1ccc2c3c1OC1c4ncc(Br)cc4CC4(O)C(C2)N(CC2CC2)CCC314 (centres unmarked) | δ opioid receptor (DPDPE) in MVD (Mus musculus, UniProt P32300) | Ke selectivity ratio μδ | 14
Nc1cnc2c(c1)C[C@@]1(O)[C@H]3Cc4ccc(O)c5c4[C@@]1(CCN3CC1CC1)[C@H]2O5 | δ opioid receptor (DPDPE) in MVD (Mus musculus, UniProt P32300) | Ke selectivity ratio μδ | 1.9
Nc1sc2c(c1C(=O)c1ccccc1)[C@@H]1Oc3c(O)ccc4c3[C@@]13CCN(CC1CC1)[C@H](C4)[C@]3(O)C2 | δ opioid receptor (DPDPE) in MVD (Mus musculus, UniProt P32300) | Ke selectivity ratio μδ | 1.3
NC(=O)c1c(N)sc2c1[C@@H]1Oc3c(O)ccc4c3[C@@]13CCN(CC1CC1)[C@H](C4)[C@]3(O)C2 | δ opioid receptor (DPDPE) in MVD (Mus musculus, UniProt P32300) | Ke selectivity ratio μδ | 2.4
